Entry source: patent US20070037752A1

target: alanyl aminopeptidases (APN) (Homo sapiens, UniProt P15144); assay: Inhibition of alanyl aminopeptidase enzymatic activity, fluorogenic substrate (Ala)2-rhodamine 110; assay type: biochemical; conditions: Table 3, unstarred values; read-out: IC50APN
Sequence (P15144 whole entry, species assumed): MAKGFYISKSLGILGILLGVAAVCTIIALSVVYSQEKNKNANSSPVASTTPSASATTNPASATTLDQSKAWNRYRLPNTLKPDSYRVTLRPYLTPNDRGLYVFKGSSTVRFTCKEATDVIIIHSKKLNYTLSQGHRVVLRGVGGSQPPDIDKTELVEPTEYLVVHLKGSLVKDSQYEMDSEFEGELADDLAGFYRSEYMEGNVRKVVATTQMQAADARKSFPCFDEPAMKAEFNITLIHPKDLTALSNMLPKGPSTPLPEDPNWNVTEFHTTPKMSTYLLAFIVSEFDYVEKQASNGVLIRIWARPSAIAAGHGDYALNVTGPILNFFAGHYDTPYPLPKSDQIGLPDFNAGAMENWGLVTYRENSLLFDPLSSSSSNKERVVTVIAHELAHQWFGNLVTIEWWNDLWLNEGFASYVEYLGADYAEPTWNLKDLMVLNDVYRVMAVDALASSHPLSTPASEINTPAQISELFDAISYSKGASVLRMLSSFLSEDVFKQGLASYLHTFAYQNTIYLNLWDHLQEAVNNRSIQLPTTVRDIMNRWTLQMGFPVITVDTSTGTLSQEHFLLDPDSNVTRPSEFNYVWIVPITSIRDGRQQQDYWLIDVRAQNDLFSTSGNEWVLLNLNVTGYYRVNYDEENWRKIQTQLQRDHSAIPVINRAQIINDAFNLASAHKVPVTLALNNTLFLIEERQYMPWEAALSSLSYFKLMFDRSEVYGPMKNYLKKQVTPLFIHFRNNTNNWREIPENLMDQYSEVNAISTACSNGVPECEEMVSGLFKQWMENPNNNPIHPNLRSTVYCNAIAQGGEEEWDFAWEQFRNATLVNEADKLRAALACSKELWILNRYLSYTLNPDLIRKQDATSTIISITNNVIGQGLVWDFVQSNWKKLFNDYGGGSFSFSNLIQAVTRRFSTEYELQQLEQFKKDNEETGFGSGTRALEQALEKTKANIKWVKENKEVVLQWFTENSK
measured endpoint: IC50 (µM)

Worked examples, 2 molecules total:
CCc1cccc(CC)c1NC(=S)N/N=C1\C(=O)N(CN2CC(C)CC(C)C2)c2ccccc21 (stereo not drawn) [A3.024]    6.6
CCCOC(=O)c1cc(-c2ccc(/C=C3\C(=O)NC(=O)C(C#N)=C3C)o2)ccc1Cl [A3.221]    36.8

[a] CCOC(=O)CCCCC(=O)c1c(C)n(C(=O)c2ccc(N3C(=O)CCC3=O)cc2)c(=O)n1C(=O)c1ccc(N2C(=O)CCC2=O)cc1 [A3.072]
[b] O=C(N/N=C/c1cc(Br)c(O)c(Br)c1O)/C(=C\c1ccc2c(c1)OCO2)NC(=O)c1ccccc1 [A3.143]
[c] Cc1ccc(/C=N/NC(=O)c2cc(C)oc2C)o1 [A3.263]
[d] O=C(Nc1ccc(NCc2cc(Cc3ccccc3Cl)cc(Br)c2O)cc1)c1ccco1 [A3.017]
Reorder the items by IC50, least to greatest. Put the labels in the order asked and list them. d, a, b, c

###

molecular target: alanyl aminopeptidases (APN) (Homo sapiens, UniProt P15144); assay: Inhibition of alanyl aminopeptidase enzymatic activity, fluorogenic substrate (Ala)2-rhodamine 110; type: biochemical; details: Table 3, unstarred values; read-out: IC50APN
pIC50: −log10 of the molar value.
measured endpoint: pIC50

CC(C)C1N=C(Cc2cccnc2)N(CCCN2CCCC2=O)C1C(=O)NCc1ccccc1 (stereo not shown) [A3.205]    4.47
C/C(=N\NC(=O)c1cc(-c2ccccc2)n[nH]1)c1ccco1 [A3.278]    4.23

[1] O=C(CC(=O)N/N=C/c1ccco1)N/N=C/c1ccco1 [A3.196]
[2] CC(=O)c1cccc(-c2ccc(/C=C3/C(=O)N(CCCO)C(=O)C(C#N)=C3C)o2)c1 [A3.089]
Param pair: 1 , 2 . Output: the one whose pIC50 is numerically greater. // respond with label for picked entry 2

[1] CC1=NNC(=O)C1CCC(=O)N/N=C\C=C\c1ccco1 (stereo not shown) [A3.138]
[2] O=C(N/N=C/c1ccco1)c1cc(C2CC2)n[nH]1 [A3.064]
[3] CCCCCCCC(=O)N/N=C/c1ccco1 [A3.264]
Order the 3 compounds from highest to lowest pIC50. The reply should contain the labels ordered as requested. 2, 1, 3

[1] Cc1ccc(/C=N/NC(=O)c2ccc(NC(=O)c3ccccc3C)cc2)o1 [A3.136]
[2] O=C(N/N=C/C=C\c1ccco1)c1cccs1 [A3.282]
Consider 1 and 2 . Which of these has its pIC50 at a higher number? Refer to your chosen item by its label in the answer. 1
(1: 4.64, 2: 4.20)

###

target: alanyl aminopeptidases (APN) (Homo sapiens, UniProt P15144); experiment: Inhibition of alanyl aminopeptidase enzymatic activity, fluorogenic substrate (Ala)2-rhodamine 110; type: biochemical; conditions: Table 9, unstarred values; read-out: IC50APN
pIC50: −log10 of the molar value.
measured endpoint: pIC50

O=C(C1c2ccccc2Oc2ccccc21)n1cc(Cl)cn1    4.54
O=C(N/N=C/c1ccco1)c1ccc(=O)[nH]n1    4.65
NCCCNC(=O)C1Cc2ncn(Cc3ccccc3[N+](=O)[O-])c2CN1Cc1ccccn1 (stereo not shown)    3.86
O=C(CNS(=O)(=O)c1ccc2c(c1)OCCO2)N/N=C/c1ccco1    4.25
Cc1ccccc1C(=O)N1CCC(C(=O)Nc2ccc(OCc3ccccc3)cc2)CC1    4.27

[a] O=C(N/C(=C\c1ccco1)C(=O)N1CCC(O)CC1)c1ccccc1
[b] CCOC(=O)c1cc(-c2ccc(/C=C3/C(=O)NC(=O)C(C#N)=C3C)o2)ccc1Cl
[c] Cc1ccc(C(=O)N/C(=C\c2ccco2)C(=O)N2CC3CC(C2)c2cccc(=O)n2C3)cc1C (stereo not shown)
[d] COC(=O)c1cccc(-c2ccc(/C=C3\C(=O)N(CCO)C(=O)C(C#N)=C3C)o2)c1
Please order the records by their reported pIC50, lowest number first. Please list the labels in the order you were asked to rank them. b, a, c, d
(b: 4.28, a: 4.68, c: 4.93, d: 5.20)

[A] C=CCN1C(=O)C(C#N)=C(C)/C(=C\c2ccc(-c3cc(C)c(C)cc3[N+](=O)[O-])o2)C1=O
[B] Cc1[nH]c2ccccc2c1C(c1cc(Cl)ccc1O)N1CCOCC1 (stereo not shown)
[C] CCOC(=O)N1CCc2c(sc(NC(=O)c3ccc(F)cc3)c2C(=O)Nc2ccc(Br)cc2)C1
[D] CCCOC(=O)c1cc(-c2ccc(/C=C3\C(=O)N(CCO)C(=O)C(C#N)=C3C)o2)ccc1Cl
[E] CCCOC(=O)C(NC(=O)c1ccc(OC)cc1)(N1CCOCC1)C(F)(F)F (stereo not shown)
Hello, I need these entries ordered by pIC50, highest reading first. Thanks! Please express your ranking as an ordered list of the labels. C, B, A, D, E
(C: 5.14, B: 4.93, A: 4.53, D: 4.27, E: 4.04)

[I] CCCOC(=O)c1cc(-c2ccc(/C=C3\C(=O)N(CCCO)C(=O)C(C#N)=C3C)o2)ccc1Cl
[II] c1coc(-c2nc3cc4ccccc4cc3nc2-c2ccco2)c1
[III] O=c1[nH]c(/C=C/c2ccco2)nc2ccccc12
Which order do these items take when sorted by rising pIC50? List them. // respond by listing labels in the order requested I, III, II
(I: 4.62, III: 4.84, II: 5.05)

[I] O=C(N/C(=C\c1ccco1)C(=O)N1CCCC(CO)C1)c1ccccc1 (stereo not shown)
[II] O=[N+]([O-])c1ncn(CN2CCOCC2)n1
Two entries are listed, I and II . Which one carries the higher pIC50? Please indicate the selected item by its label. I

[I] CC1=C(C#N)C(=O)N(CCCO)C(=O)/C1=C\c1ccc(-c2ccc(Br)cc2)o1
[II] CC1=C(C#N)C(=O)N=C(O)/C1=C\c1ccc(-c2ccc(Cl)cc2Cl)o1
Hello, I am sorting some records. Could you say if I or II has the smaller pIC50 value? Write down the label of the entry you select. II

[I] CC(C)COc1ccc(C(=O)N/C(=C\c2ccco2)C(=O)N2CCOCC2)cc1
[II] O=C1c2cccc3c(Br)c([N+](=O)[O-])cc(c23)C(=O)N1c1cccc([N+](=O)[O-])c1
[III] COc1ccc(/C=C2\c3ccccc3-c3ccc(C(=O)CCCCN4CCCCC4)cc32)cc1OC
// ranking: key=pIC50, reverse=True Write the labels out in the order the request specifies. I, II, III

[P] CC(=O)c1cccc(-c2ccc(/C=C3/C(=O)N(CCCO)C(=O)C(C#N)=C3C)o2)c1
[Q] CCCCCCCSc1nnc2c(n1)OC(C(=O)c1ccccc1)=Nc1ccccc1-2
[R] CCOC(=O)c1cc(Br)ccc1-c1ccc(/C=C2\C(=O)N=C(O)C(C#N)=C2C)o1
[S] COc1ccc(Cl)cc1C(=O)N/C(=C/c1ccco1)C(=O)N1CC2CC(C1)c1cccc(=O)n1C2 (stereo not shown)
Put these in order: smallest pIC50 first, largest last. Answer format: list of labels, ordered as asked. R, Q, P, S
(R: 4.30, Q: 4.54, P: 4.74, S: 5.09)

[I] CC1CCN(C(=O)/C(=C\c2ccco2)NC(=O)c2ccccc2)CC1
[II] CCOC(=O)c1c(C)oc2c1c1c(c3ccccc32)OCN(C2CCS(=O)(=O)C2)C1 (stereo not shown)
Kindly identify the item with the lower pIC50 figure among these two: I and II Answer by stating the label of the chosen item. I
